Data provenance is patent US20030235863A1.

# Experimental target: T1, N-terminal hexahistidine-tagged FPR (human, UniProt P21462 1-350)
# T1 construct: Construct limits and junction are not described; also called N-H6:FPR
# T1 sequence: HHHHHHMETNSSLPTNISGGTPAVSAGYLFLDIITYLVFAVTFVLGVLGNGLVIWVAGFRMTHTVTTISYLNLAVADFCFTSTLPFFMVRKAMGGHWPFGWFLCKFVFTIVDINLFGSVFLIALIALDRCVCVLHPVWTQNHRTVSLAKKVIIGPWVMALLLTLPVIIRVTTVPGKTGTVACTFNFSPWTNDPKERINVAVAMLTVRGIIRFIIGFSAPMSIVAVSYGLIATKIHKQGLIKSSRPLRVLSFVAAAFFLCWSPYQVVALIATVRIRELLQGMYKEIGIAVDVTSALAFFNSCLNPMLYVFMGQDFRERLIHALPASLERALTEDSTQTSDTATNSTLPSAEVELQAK
# Protocol: receptor on DCNi beads, flow cytometry
pKd: −log10 of the molar value. No end group written: not given here. *: point of attachment. For = O=C*
Measurement name: pKd

>>> experimental_result("For-MLFK (also: FITC conjugated, site not given here, everywhere else it is fMLFK-FITC; also called fMLFK-FITC; fluorescent ligand) [formyl-MLFK-FITC]")
8.10
